Every entry's value here was drawn from patent US9914735B2.

test: Human liver microsomal stability test; format: in vitro ADME; details: human liver microsomes; Qh = liver blood flow
Each entry below lists one item and its recorded microsomal stability Cl [% Qh] value.
quantity: microsomal stability Cl [% Qh] (% Qh)

structureNotation: Cc1nc(C)c2cc(-c3cc(O[C@H](C)[C@H]4CNC(=O)C4)c4cccnc4c3)ccc2n1
unitSymbol: % Qh
resultOperator: =
endpointValue: 38

structureNotation: COc1cc(-c2cc3ncccc3c(O[C@H](C)[C@H]3CNC(=O)C3)n2)cc(OC)c1OC
unitSymbol: % Qh
resultOperator: =
endpointValue: 62

structureNotation: COc1cc(-c2cc3ncccc3c(O[C@H](C)[C@H]3CNC(=O)C3)n2)ccc1OC(F)(F)F
unitSymbol: % Qh
resultOperator: =
endpointValue: 33

structureNotation: C[C@@H](Oc1cc(-c2ccc(N3CCN(C)CC3)cc2)cc2nn(C)cc12)[C@H]1CNC(=O)C1
unitSymbol: % Qh
resultOperator: <
endpointValue: 23

* * *

target: Recombinant human Aurora B (amino acids 1-344) (Homo sapiens (Human), UniProt Q96GD4); assay: Aurora B kinase test (ADP Glo luminescence); format: biochemical; details: read-out: IC50 in μM (AURB-Inhibition)
Sequence (Q96GD4 whole entry, the tested form may be a part): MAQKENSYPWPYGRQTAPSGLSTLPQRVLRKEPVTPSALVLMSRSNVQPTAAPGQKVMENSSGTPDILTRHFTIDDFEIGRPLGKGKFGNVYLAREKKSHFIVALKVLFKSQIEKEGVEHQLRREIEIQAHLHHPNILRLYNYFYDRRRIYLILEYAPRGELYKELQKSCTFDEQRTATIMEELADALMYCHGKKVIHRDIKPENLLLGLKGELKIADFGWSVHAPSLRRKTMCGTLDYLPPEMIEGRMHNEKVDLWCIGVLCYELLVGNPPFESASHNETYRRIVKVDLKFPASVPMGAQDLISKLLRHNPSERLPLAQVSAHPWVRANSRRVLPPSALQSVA

structureNotation: C[C@@H](Oc1nc(-c2ccc(C(F)(F)F)nc2)cc2nn(C)cc12)[C@H]1CNC(=O)C1
IC50: > 50 µM

structureNotation: Cc1nc(C)c2cc(-c3cc(O[C@H](C)[C@H]4CNC(=O)C4)c4cccnc4c3)ccc2n1
IC50: 1.82 µM

structureNotation: COc1cc(-c2cc3ncccc3c(O[C@H](C)[C@H]3CNC(=O)C3)n2)cc(Cl)c1OC
IC50: 2.33 µM

structureNotation: C[C@@H](Oc1cc(-c2ccc3c(cnn3C)c2)cc2nn(C)cc12)[C@H]1CNC(=O)C1
IC50: > 50 µM

structureNotation: C[C@@H](Oc1cc(-c2ccccn2)cc2ncccc12)[C@H]1CNC(=O)C1
IC50: 1.03 µM

structureNotation: C[C@@H](Oc1cc(-c2ccc3cnn(C)c3c2)cc2ncccc12)[C@H]1CNC(=O)C1
IC50: 0.63 µM

structureNotation: C[C@@H](Oc1nc(-c2ccc3cnn(C)c3c2)cc2nn(C)cc12)[C@H]1CNC(=O)C1
IC50: > 50 µM

structureNotation: CC(C)Oc1ccc(-c2cc(O[C@H](C)[C@H]3CNC(=O)C3)c3cn(C)nc3c2)cn1
IC50: > 50 µM

structureNotation: Cc1nc2cc(-c3cc(O[C@H](C)[C@H]4CNC(=O)C4)c4cccnc4c3)ccc2n1C
IC50: 0.479 µM

structureNotation: COc1cc(-c2cc3ncccc3c(O[C@H](C)[C@H]3CNC(=O)C3)n2)cc(OC)c1Cl
IC50: > 50 µM

structureNotation: C[C@@H](Oc1nc(-c2ccc(N3CCN(C)CC3)cc2)cc2nn(C)cc12)[C@H]1CNC(=O)C1
IC50: > 50 µM

structureNotation: COc1cc(-c2cc3ncccc3c(O[C@H](C)[C@H]3CNC(=O)C3)n2)cc(OC)c1OC
IC50: 5.21 µM

structureNotation: COc1cc(-c2cc3nn(C)cc3c(O[C@H](C)[C@H]3CNC(=O)C3)n2)ccc1OC(C)C
IC50: 48.4 µM

structureNotation: Cc1nc2cc(-c3cc(O[C@H](C)[C@H]4CNC(=O)C4)c4cccnc4c3)ccc2[nH]1
IC50: 0.26 µM

structureNotation: C[C@@H](Oc1cc(-c2ccc3ncn(C)c3c2)cc2ncccc12)[C@H]1CNC(=O)C1
IC50: 0.949 µM

structureNotation: COc1cc(-c2cc(O[C@H](C)[C@H]3CNC(=O)C3)c3cccnc3c2)ccc1OC(C)C
IC50: 0.271 µM

structureNotation: COc1cc(-c2cc3nn(C)cc3c(O[C@H](C)[C@H]3CNC(=O)C3)n2)ccc1O
IC50: > 50 µM

structureNotation: Cc1cn2cc(-c3cc(O[C@H](C)[C@H]4CNC(=O)C4)c4cccnc4c3)ccc2n1
IC50: 0.25 µM

structureNotation: COc1cc(-c2cc(O[C@H](C)[C@H]3CNC(=O)C3)c3cccnc3c2)cc(OC)c1OC
IC50: 16.9 µM

structureNotation: C[C@@H](Oc1cc(-c2ccc3[nH]cnc3c2)cc2ncccc12)[C@H]1CNC(=O)C1
IC50: 0.308 µM

structureNotation: C[C@@H](Oc1nc(-c2ccc3c(cnn3C)c2)cc2nn(C)cc12)[C@H]1CNC(=O)C1
IC50: > 50 µM

structureNotation: C[C@@H](Oc1cc(-c2ccc3c(c2)CNCC3)cc2ncccc12)[C@H]1CNC(=O)C1
IC50: 1.05 µM

structureNotation: C[C@@H](Oc1cc(-c2ccc(N3CCN(C)CC3)cc2)cc2nn(C)cc12)[C@H]1CNC(=O)C1
IC50: > 50 µM

structureNotation: C[C@@H](Oc1cc(-c2ccc(F)cn2)cc2nn(C)cc12)[C@H]1CNC(=O)C1
IC50: > 50 µM

structureNotation: COc1ccc(-c2cc(O[C@H](C)[C@H]3CNC(=O)C3)c3cccnc3c2)cc1OC
IC50: 0.643 µM

structureNotation: C[C@@H](Oc1nc(-c2ccc(OC(F)(F)F)c(F)c2)cc2ncccc12)[C@H]1CNC(=O)C1
IC50: 5.09 µM

structureNotation: COc1cc(-c2cc3nn(C)cc3c(O[C@H](C)[C@H]3CNC(=O)C3)n2)cc(OC)c1OC
IC50: > 50 µM

structureNotation: COc1cc(-c2cc(O[C@H](C)[C@H]3CNC(=O)C3)c3cccnc3c2)ccc1C(F)(F)F
IC50: 2.63 µM

structureNotation: COc1ccc(-c2cc3nn(C)cc3c(O[C@H](C)[C@H]3CNC(=O)C3)n2)cc1OC
IC50: > 50 µM

structureNotation: COc1cc(-c2cc(O[C@H](C)[C@H]3CNC(=O)C3)c3cccnc3c2)ccc1O
IC50: 0.752 µM

* * *

This section presents compounds with their documented microsomal stability Cl [% Qh] values.
assay: Human liver microsomal stability test; assay type: in vitro ADME; settings: human liver microsomes; Qh = liver blood flow

structureNotation: C[C@@H](Oc1cc(-c2ccccn2)cc2ncccc12)[C@H]1CNC(=O)C1
resultOperator: =
microsomal stability Cl [% Qh] (% Qh): 24
--
structureNotation: CCCn1cc(-c2cc(O[C@H](C)[C@H]3CNC(=O)C3)c3cccnc3c2)cn1
resultOperator: =
microsomal stability Cl [% Qh] (% Qh): 26
--
structureNotation: Cc1cn2cc(-c3cc(O[C@H](C)[C@H]4CNC(=O)C4)c4cccnc4c3)ccc2n1
resultOperator: <
microsomal stability Cl [% Qh] (% Qh): 23
--
structureNotation: C[C@@H](Oc1cc(-c2ccc(C3CCN(C)CC3)cc2)cc2nn(C)cc12)[C@H]1CNC(=O)C1
resultOperator: <
microsomal stability Cl [% Qh] (% Qh): 23

* * *

biological target: UniProtKB P36888; assay: FLT3 kinase test (Z'-LYTE); type: biochemical; conditions: Table 1; read-out: FLT3-inhibition IC50-value
Sequence (P36888 27-993): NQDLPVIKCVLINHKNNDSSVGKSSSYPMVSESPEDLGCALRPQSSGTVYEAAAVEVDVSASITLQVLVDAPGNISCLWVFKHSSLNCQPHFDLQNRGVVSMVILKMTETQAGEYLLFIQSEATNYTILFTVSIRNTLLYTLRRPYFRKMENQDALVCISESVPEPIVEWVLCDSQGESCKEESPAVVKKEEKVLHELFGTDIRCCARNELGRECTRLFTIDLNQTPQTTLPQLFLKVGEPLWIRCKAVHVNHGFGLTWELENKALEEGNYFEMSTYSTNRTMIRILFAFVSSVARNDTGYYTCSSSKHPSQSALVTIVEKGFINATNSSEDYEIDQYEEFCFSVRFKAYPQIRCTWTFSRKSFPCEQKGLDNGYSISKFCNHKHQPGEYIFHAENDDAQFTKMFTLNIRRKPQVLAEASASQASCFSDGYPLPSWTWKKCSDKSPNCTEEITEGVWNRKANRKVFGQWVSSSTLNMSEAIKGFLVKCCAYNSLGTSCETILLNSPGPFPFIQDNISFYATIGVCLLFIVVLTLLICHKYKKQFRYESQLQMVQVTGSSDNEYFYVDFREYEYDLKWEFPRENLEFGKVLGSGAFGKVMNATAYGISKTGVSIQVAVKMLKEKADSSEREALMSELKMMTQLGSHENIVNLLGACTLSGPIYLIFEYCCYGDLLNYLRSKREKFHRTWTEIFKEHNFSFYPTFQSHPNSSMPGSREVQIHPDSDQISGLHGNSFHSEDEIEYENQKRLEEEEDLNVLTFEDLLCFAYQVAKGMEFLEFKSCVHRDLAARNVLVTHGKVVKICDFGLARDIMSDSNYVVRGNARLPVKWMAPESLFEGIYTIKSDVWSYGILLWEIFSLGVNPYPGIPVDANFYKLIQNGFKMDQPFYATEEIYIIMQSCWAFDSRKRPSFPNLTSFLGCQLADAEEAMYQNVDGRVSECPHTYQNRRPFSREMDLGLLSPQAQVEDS
pIC50: −log10 of the molar value.

structureNotation: COCCn1cc(-c2cc3nn(C)cc3c(O[C@H](C)[C@H]3CNC(=O)C3)n2)cn1
assaySystem: UniProtKB P36888
resultOperator: =
pIC50: 4.50

structureNotation: C[C@@H](Oc1nc(-c2ccc(N3CCN(C)CC3)cc2)cc2nn(C)cc12)[C@H]1CNC(=O)C1
assaySystem: UniProtKB P36888
resultOperator: =
pIC50: 5.77

structureNotation: COc1ccc(-c2cc3nn(C)cc3c(O[C@H](C)[C@H]3CNC(=O)C3)n2)cc1OC
assaySystem: UniProtKB P36888
resultOperator: =
pIC50: 5.40

structureNotation: C[C@@H](Oc1cc(-c2cnn(C3CCOCC3)c2)cc2nn(C)cc12)[C@H]1CNC(=O)C1
assaySystem: UniProtKB P36888
resultOperator: =
pIC50: 5.32

structureNotation: C[C@@H](Oc1cc(-c2ccn(C)n2)cc2nn(C)cc12)[C@H]1CNC(=O)C1
assaySystem: UniProtKB P36888
resultOperator: =
pIC50: 4.39

structureNotation: C[C@@H](Oc1cc(-c2cnn(C(F)F)c2)cc2nn(C)cc12)[C@H]1CNC(=O)C1
assaySystem: UniProtKB P36888
resultOperator: =
pIC50: 5.05

structureNotation: C[C@@H](Oc1nc(-c2ccc(N3CCOCC3)nc2)cc2nn(C)cc12)[C@H]1CNC(=O)C1
assaySystem: UniProtKB P36888
resultOperator: =
pIC50: 5.35

structureNotation: Cc1nn(C)cc1-c1cc2nn(C)cc2c(O[C@H](C)[C@H]2CNC(=O)C2)n1
assaySystem: UniProtKB P36888
resultOperator: =
pIC50: 4.65

structureNotation: C[C@@H](Oc1cc(-c2cnn(C(C)(C)C)c2)cc2nn(C)cc12)[C@H]1CNC(=O)C1
assaySystem: UniProtKB P36888
resultOperator: =
pIC50: 4.87

structureNotation: C[C@@H](Oc1cc(-c2cnc3ccc(C#N)cn23)cc2nn(C)cc12)[C@H]1CNC(=O)C1
assaySystem: UniProtKB P36888
resultOperator: =
pIC50: 4.82

structureNotation: C[C@@H](Oc1nc(-c2ccc(C(F)(F)F)cc2)cc2nn(C)cc12)[C@H]1CNC(=O)C1
assaySystem: UniProtKB P36888
resultOperator: =
pIC50: 5.01

structureNotation: COc1ccc(-c2cc3nn(C)cc3c(O[C@H](C)[C@H]3CNC(=O)C3)n2)cn1
assaySystem: UniProtKB P36888
resultOperator: =
pIC50: 4.34

structureNotation: C[C@@H](Oc1nc(-c2ccc(C(F)(F)F)nc2)cc2nn(C)cc12)[C@H]1CNC(=O)C1
assaySystem: UniProtKB P36888
resultOperator: =
pIC50: 4.32

structureNotation: C[C@@H](Oc1nc(-c2cc3nn(C)cc3c(=O)[nH]2)cc2nn(C)cc12)[C@H]1CNC(=O)C1
assaySystem: UniProtKB P36888
resultOperator: <
pIC50: 4.30

structureNotation: Cc1nccn1Cc1ccc(-c2cc3nn(C)cc3c(O[C@H](C)[C@H]3CNC(=O)C3)n2)cc1
assaySystem: UniProtKB P36888
resultOperator: =
pIC50: 5.79

structureNotation: Cc1cc(-c2cc3nn(C)cc3c(O[C@H](C)[C@H]3CNC(=O)C3)n2)ccc1N1CCCS1(=O)=O
assaySystem: UniProtKB P36888
resultOperator: =
pIC50: 5.12
